test: NCI Yeast Anticancer Drug Screen. Data for the sgs1 mgt1 strain (AID 161);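 further: 0% = growth of cultures given vehicle only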; settings: S. cerevisiae sgs1 mgt1 strain, at 50.0 µM, active compounds read high
About 79,000 compounds went through this panel and 15% of them were active in at least one assay; those are over-represented in the sample as a whole.
Experimental readout: growth inhibition (%)
State just the number; it will be interpreted in %.

Enquiry: Give its growth inhibition value. Item: CC1c2ccccc2CC(CCN(C)C)c2ccccc21 (stereo unspecified)
Return: 34

Enquiry: Cool, now OC1CCCC2CCCC12 (stereo unspecified)
Return: -8.1

Enquiry: Cool, now c1ccc([P+](Cc2ccc(C[P+](c3ccccc3)(c3ccccc3)c3ccccc3)cc2)(c2ccccc2)c2ccccc2)cc1
Return: 29.4

Enquiry: Cool, now CC(C)OC(=O)CO
Return: 14.2

Enquiry: Cool, now Cc1nc(N)sc1C(=O)/C=C/c1ccc([N+](=O)[O-])cc1
Return: -15.7

Enquiry: Cool, now Cc1ccc(C)c(C(=O)c2ccccc2)c1C(=O)O
Return: 12.8

Enquiry: Cool, now CC(=O)OC[C@@]12CC[C@H]3C(C)(C)CCC[C@]3(C)[C@H]1C[C@@H](C1=CC(=O)O[C@H]1O)O2
Return: 91.5

Enquiry: Cool, now N#C/C(=C/n1c(=S)sc2ccccc21)c1nc2ccccc2s1
Return: 49.6

Enquiry: Cool, now CC(=O)OCC1OC=CC(OC(C)=O)C1OC(C)=O (stereo unspecified)
Return: -8.55

Enquiry: Cool, now COc1cc(Cc2c(OC)c(OC)cc(C)c2C(=O)O)cc(OC)c1
Return: -1.75

Enquiry: Cool, now CC(=O)OCC1OC(n2cc(C)c(=O)[nH]c2=O)C(NC(=O)C(Cl)(Cl)Cl)C(OC(C)=O)C1OC(C)=O (stereo unspecified)
Return: 2.75
